# collection of IC50 values tested on Serine/threonine-protein kinase pim-1 (Homo sapiens, UniProt P11309)
# Sequence (P11309 whole entry): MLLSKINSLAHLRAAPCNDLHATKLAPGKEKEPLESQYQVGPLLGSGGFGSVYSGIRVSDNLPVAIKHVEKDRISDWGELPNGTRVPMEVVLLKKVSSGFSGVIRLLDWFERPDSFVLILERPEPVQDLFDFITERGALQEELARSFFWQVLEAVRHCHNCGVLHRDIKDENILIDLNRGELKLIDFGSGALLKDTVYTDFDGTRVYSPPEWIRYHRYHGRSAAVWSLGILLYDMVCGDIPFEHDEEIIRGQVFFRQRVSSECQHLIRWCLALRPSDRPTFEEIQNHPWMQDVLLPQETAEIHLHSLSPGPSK
readout_kind: IC50 (nM)

1) Oc1ccc(-c2ccc3c(-c4ccc(N5CCNCC5)cc4)n[nH]c3n2)cc1
9
2) Oc1ccc(-c2ccc3c(-c4ccc(N5CCNCC5)cc4)c[nH]c3n2)cc1
30
3) c1cc(-c2ccc3c(-c4ccc(N5CCNCC5)cc4)n[nH]c3n2)c2cc[nH]c2c1
110
4) NS(=O)(=O)c1ccc(-c2ccc3c(-c4ccc(N5CCNCC5)cc4)n[nH]c3n2)cc1
11000

###

These compounds were tested on Serine/threonine-protein kinase pim-3 (Homo sapiens, UniProt Q86V86); pIC50 is the recorded read-out.
pIC50: −log10 of the molar value.
readout_kind: pIC50

1) c1cc(-c2ccc3c(-c4ccc(N5CCNCC5)cc4)n[nH]c3n2)c2cc[nH]c2c1
6.59
2) Nc1ccc(-c2ccc3c(-c4ccc(N5CCNCC5)cc4)n[nH]c3n2)cn1
4.92
3) c1cnc(-c2ccc3[nH]cc(-c4ccc(N5CCNCC5)cc4)c3c2)cn1
6.02
4) COc1ccc(-c2ccc3c(-c4ccc(N5CCNCC5)cc4)n[nH]c3n2)cc1
4.89
